- Assay Overview: Study MPKF: plasma pharmacokinetics of MDMA and MDA, single 120 mg MDMA·HCl, fasted/fed
- Type: in vivo, human
- Assay Setup: human, plasma, oral, 120 mg, single 120 mg dose of MDMA·HCl, fasting; read-out: t1/2 (converted)
Where a name gives a salt, the structure may show the parent alone.
Assay Endpoint: half-life (h)
# unit: h | format: bare number

// query Using the record for CNC(C)Cc1ccc2c(c1)OCO2 (stereo not shown) [MDMA·HCl, MDMA hydrochloride] , report its half-life.
// result 9

----------
- Assay Overview: Study MPKF: plasma pharmacokinetics of MDMA and MDA, single 120 mg MDMA·HCl, fasted/fed
- Assay type: in vivo, human
- Assay Setup: human, plasma, oral, 120 mg, fed treatment group; 1 h; read-out: PK plasma concentration, Median
Assay Endpoint: concentration at 1 h (ng/mL)
# unit: ng/mL | format: bare number

// query Using the record for CNC(C)Cc1ccc2c(c1)OCO2 (stereo not shown) , report its concentration at 1 h.
// result 47.4
